Target: b-Raf (V600E) (Homo sapiens (Human), UniProt P15056, V600E)
Sequence (P15056 whole entry V600E): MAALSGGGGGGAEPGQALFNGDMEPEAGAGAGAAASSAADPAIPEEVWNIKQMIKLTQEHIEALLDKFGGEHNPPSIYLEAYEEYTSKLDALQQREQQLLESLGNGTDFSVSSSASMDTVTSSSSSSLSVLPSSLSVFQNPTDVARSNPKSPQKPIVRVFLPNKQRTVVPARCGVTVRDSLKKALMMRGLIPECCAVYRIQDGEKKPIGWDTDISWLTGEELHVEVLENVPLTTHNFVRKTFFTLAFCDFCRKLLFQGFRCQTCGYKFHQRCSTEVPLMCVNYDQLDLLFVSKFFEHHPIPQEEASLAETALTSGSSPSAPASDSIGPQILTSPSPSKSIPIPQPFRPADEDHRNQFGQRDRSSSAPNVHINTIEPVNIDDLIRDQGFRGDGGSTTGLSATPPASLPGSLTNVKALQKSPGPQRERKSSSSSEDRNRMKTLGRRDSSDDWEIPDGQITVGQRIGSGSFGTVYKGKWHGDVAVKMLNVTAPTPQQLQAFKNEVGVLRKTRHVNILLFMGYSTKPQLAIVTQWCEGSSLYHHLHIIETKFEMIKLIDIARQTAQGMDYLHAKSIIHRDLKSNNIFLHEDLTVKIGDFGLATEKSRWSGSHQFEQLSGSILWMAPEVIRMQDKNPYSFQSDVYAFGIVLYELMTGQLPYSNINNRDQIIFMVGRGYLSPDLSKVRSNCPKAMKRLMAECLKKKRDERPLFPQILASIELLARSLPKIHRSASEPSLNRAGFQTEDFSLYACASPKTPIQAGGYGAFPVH
Conditions: read-out: b-Raf IC-50; Table 2; AlphaScreen, 3 hours reaction
quantity.measured: IC50 (nM)

a = Cc1ncc(NC(=O)c2cccc(C(F)(F)F)c2)cc1-c1cnc(C#N)c(N2CCOCC2)c1 [Example 222]
b = COc1ccc(C(=O)Nc2ccc(C)c(-c3cc(N4CCOCC4)c(=O)n(C)c3)c2)cc1C(F)(F)F [Example 339]
c = CCN1CCN(c2cc(C(=O)Nc3cnc(C)c(-c4cc(N5CCOCC5)c(=O)n(C)c4)c3)cc(C(F)(F)F)c2)CC1 [Example 402]
d = Cc1ncc(NC(=O)c2cccc(C3(C#N)CC3)c2Cl)cc1-c1cc(N2CCOCC2)c(=O)n(C)c1 [Example 403]
Exercise: Rank the 4 molecules: largest IC50 first, smallest last. Show the ranking through the labels, in the order asked for.
Key: c, d, a, b
